- TARGET: Corticotropin-releasing factor receptor 2/Corticotropin-releasing factor-binding protein (Homo sapiens, UniProt P24387+Q13324)
- Sequence (Q13324 whole entry): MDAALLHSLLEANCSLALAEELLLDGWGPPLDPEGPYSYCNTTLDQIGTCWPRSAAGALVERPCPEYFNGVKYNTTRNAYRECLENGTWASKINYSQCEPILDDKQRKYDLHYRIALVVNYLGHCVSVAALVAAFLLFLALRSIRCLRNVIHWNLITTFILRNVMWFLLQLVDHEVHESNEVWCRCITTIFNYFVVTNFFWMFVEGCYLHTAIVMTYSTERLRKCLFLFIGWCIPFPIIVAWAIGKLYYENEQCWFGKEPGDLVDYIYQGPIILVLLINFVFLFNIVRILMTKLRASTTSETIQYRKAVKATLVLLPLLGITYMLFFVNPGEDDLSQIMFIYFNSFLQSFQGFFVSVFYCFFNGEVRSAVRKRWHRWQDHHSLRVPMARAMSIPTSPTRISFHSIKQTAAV
- Sequence (P24387 whole entry): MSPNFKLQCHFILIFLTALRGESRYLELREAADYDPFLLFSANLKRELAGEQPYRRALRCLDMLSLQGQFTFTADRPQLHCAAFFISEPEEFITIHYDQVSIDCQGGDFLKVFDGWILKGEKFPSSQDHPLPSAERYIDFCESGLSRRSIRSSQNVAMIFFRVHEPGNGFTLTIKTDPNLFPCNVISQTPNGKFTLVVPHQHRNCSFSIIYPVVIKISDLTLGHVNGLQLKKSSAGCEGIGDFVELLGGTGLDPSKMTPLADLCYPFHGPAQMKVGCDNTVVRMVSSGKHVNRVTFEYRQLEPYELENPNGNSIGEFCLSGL
- MEASUREMENT_PROTOCOL: Dose Response confirmation of uHTS hits for small molecule antagonists of the CRF-binding protein and CRF-R2 receptor complex.
- Assay type: functional
- TEST_CONDITIONS: read-out: IC50_Mean
Calls of active or inactive are those of the source. No stated cut-off is given here; in the data, actives have a measured IC50 and inactives only a lower limit.
Record form. Attribute: IC50. Fill in for each entry.

Task: What does the data say about its IC50? Entry: "COC(=O)c1cc(C#N)c(NCc2ccccc2)nc1C"
Output: 8.02 µM (active)

Task: May I ask what IC50 has been recorded for "O=C(COc1ccc2ccccc2c1)Nc1cccc(C(=O)Nc2ccccc2C(=O)O)c1" ?
Output: 2.55 µM (active)

Task: Dear colleague, I am looking for the recorded IC50 of the following compound: "C/C(=C\c1ccccc1)CN1CCC(C(=O)N2CCCCC2)CC1"
Output: > 47.1 µM (inactive)

Task: Find the recorded IC50 belonging to "Cc1ccc(C(=O)Nc2nnc(-c3ccco3)o2)cc1C" and report it.
Output: > 47.1 µM (inactive)

Task: Requested read-out: IC50. Entry: "CCC(=O)N(Cc1c(C)nn(-c2ccccc2)c1Cl)c1ccc(Cl)cc1"
Output: 7.02 µM (active)

Task: Looking for the measured IC50 of N#CC1=C(N)OC2=C(C(=O)CC(c3ccccc3)C2)C1c1ccc2c(c1)OCO2 (stereo unspecified) , can you help?
Output: > 47.1 µM (inactive)

Task: State the recorded IC50 for this entry: "COc1ccccc1OCC(=O)NNC(=O)c1cnccn1"
Output: > 47.1 µM (inactive)

Task: I am curious: what IC50 value has been reported for "O=C(/C=C/c1ccco1)OCc1nnc(-c2ccc(Cl)cc2)o1" ?
Output: > 47.1 µM (inactive)

Task: Item "CC(/C=C/c1ccccc1)=N/NC(=O)CNC(=O)c1ccc2c(c1)OCO2" has what recorded IC50?
Output: > 47.1 µM (inactive)

Task: GET /values?readout=IC50&item= "CSc1cccc(NC(=O)C(C)C)c1"
Output: > 47.1 µM (inactive)

Task: // returns reported IC50 for input "Cc1cc([N+](=O)[O-])ccc1NCc1ccco1"
Output: 23.1 µM (active)

Numbers sourced from ChEMBL document CHEMBL1201862.
